# Target Of Assay: T1, Human ACVR2A (human, UniProt P27037 20-135, limits assumed); also: test concentration or dose not given here
# T1 construct: also called activin receptor, type II A
# T1 sequence (P27037 20-135 limits assumed): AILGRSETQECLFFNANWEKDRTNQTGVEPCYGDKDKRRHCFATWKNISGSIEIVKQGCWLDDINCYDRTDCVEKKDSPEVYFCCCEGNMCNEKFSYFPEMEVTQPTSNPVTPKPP
# Test Protocol: ELISA
Reported optical density values follow for various binders
Give a bare numeral; the unit OD is implied.

Entry 368_D04 (antibody, V domains shown) VH: EVQLLESGGGLVQPGGSLRLSCAASGFTFSSYGMNWVRQAPGKGLEWVSGINYNGGYKSYADSVKGRFTISRDNSKNTLYLQMNSLRAEDTAVYYCARSANWHDTALDYWGQGTLVTVSS VL: DIQMTQSPSSLSASVGDRVTITCRASQSISTYVNWYQQKPGKAPKLVIYAVTSRHSGVPSRFSGSGSGTDFTLTISSLQPEDFATYYCQQSYDSPLTFGGGTKVEIK has what optical density?
2.46

Entry 370_G03 (antibody, V domains shown) VH: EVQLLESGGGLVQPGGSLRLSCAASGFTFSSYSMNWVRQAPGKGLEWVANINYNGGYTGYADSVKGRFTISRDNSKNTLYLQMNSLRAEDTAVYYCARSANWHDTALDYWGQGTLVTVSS VL: DIQMTQSPSSLSASVGDRVTITCRASQSILTYVNWYQQKPGKAPKLVIYATTSRASGVPSRFSGSGSGTDFTLTISSLQPEDFATYYCQQSYNNPLTFGGGTKVEIK has what optical density?
3.1

Entry 372_F06 (antibody, V domains shown) VH: EVQLLESGGGLVQPGGSLRLSCAASGFTFSDYGMNWVRQAPGKGLEWVAGINYNGGYKSYADSVKGRFTISRDNSKNTLYLQMNSLRAEDTAVYYCARSANWHDTALDYWGQGTLVTVSS VL: DIQMTQSPSSLSASVGDRVTITCRASQSILSYVNWYQQKPGKAPKLLIYAATSLASGVPSRFSGSGSGTDFTLTISSLQPEDFATYYCQQSYETPLTFGGGTKVEIK has what optical density?
2.26

Continuing:
Entry 368_E02 (antibody, V domains shown) VH: EVQLLESGGGLVQPGGSLRLSCAASGFTFDSYSMNWVRQAPGKGLEWVAGINYNSGYTSYADSVKGRFTISRDNSKNTLYLQMNSLRAEDTAVYYCARSANWHDTHLDYWGQGTLVTVSS VL: DIQMTQSPSSLSASVGDRVTITCRASQSILTYLNWYQQKPGKAPKLLIYAATSRASGVPSRFSGSGSGTDFTLTISSLQPEDFATYYCQQSYSSPLTFGGGTKVEIK has what optical density?
2.5

Entry 373_H01 (antibody, V domains shown) VH: EVQLLESGGGLVQPGGSLRLSCAASGFTFDSYSMNWVRQAPGKGLEWVANINYNGGYTGYADSVKGRFTISRDNSKNTLYLQMNSLRAEDTAVYYCARSANWHDTALDYWGQGTLVTVSS VL: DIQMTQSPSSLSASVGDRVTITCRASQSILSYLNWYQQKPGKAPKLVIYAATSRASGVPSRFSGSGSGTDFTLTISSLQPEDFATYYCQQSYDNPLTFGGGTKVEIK has what optical density?
3.1

Entry 367_E04 (antibody, V domains shown) VH: EVQLLESGGGLVQPGGSLRLSCAASGFTFSDYSMNWVRQAPGKGLEWVSSINYNGGYKGYADSVKGRFTISRDNSKNTLYLQMNSLRAEDTAVYYCARSANWHDTHLDYWGQGTLVTVSS VL: DIQMTQSPSSLSASVGDRVTITCRASQSILSYLNWYQQKPGKAPKLLIYAATSRASGVPSRFSGSGSGTDFTLTISSLQPEDFATYYCQQSYESPLTFGGGTKVEIK has what optical density?
2.41

Entry 374_C03 (antibody, V domains shown) VH: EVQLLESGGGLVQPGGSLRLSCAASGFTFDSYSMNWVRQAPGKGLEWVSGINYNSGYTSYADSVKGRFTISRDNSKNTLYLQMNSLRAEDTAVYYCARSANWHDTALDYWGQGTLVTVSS VL: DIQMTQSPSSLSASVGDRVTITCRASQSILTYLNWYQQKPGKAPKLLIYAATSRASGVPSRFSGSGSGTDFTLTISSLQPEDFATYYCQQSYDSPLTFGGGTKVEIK has what optical density?
3.58

Entry 372_F09 (antibody, V domains shown) VH: EVQLLESGGGLVQPGGSLRLSCAASGFTFDSYSMNWVRQAPGKGLEWVANINYNSGYKGYADSVKGRFTISRDNSKNTLYLQMNSLRAEDTAVYYCARSANWHDTALDYWGQGTLVTVSS VL: DIQMTQSPSSLSASVGDRVTITCRASQSILTYLNWYQQKPGKAPKLVIYAATSLASGVPSRFSGSGSGTDFTLTISSLQPEDFATYYCQQSYSSPLTFGGGTKVEIK has what optical density?
3.17

Entry 369_E11 (antibody, V domains shown) VH: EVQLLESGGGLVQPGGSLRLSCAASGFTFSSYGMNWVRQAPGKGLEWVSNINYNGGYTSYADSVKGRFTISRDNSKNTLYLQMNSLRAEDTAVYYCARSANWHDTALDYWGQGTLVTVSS VL: DIQMTQSPSSLSASVGDRVTITCRASQSIISYLNWYQQKPGKAPKLLIYAATSLASGVPSRFSGSGSGTDFTLTISSLQPEDFATYYCQQSYDTPLTFGGGTKVEIK has what optical density?
2.89

Entry 369_D01 (antibody, V domains shown) VH: EVQLLESGGGLVQPGGSLRLSCAASGFTFSDYGMNWVRQAPGKGLEWVASINYNGGYTGYADSVKGRFTISRDNSKNTLYLQMNSLRAEDTAVYYCARSANWHDTALDYWGQGTLVTVSS VL: DIQMTQSPSSLSASVGDRVTITCRASQSILTYLNWYQQKPGKAPKLLIYAATSRASGVPSRFSGSGSGTDFTLTISSLQPEDFATYYCQQSYSNPLTFGGGTKVEIK has what optical density?
3.13

Sourced from patent US20210380703A1
